Taken from PubChem BioAssay AID1963432.

tested on: SYO-1 complex spheroid growth, percent test/control; test: Anticancer human tumor SYO-1 cell line growth inhibition [Asc]; details: curve of first compound; second compound 0.1 µM;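 also: compound exposure lasted 7 days after spheroids grew 3 days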
quantity: IC50

C#Cc1c(F)ccc2cc(O)cc(-c3ncc4c(N5CC6CCC(C5)N6)nc(OCC56CCCN5CC(F)C6)nc4c3F)c12 (stereo not drawn) + Cc1c(S(C)(=O)=O)c(-c2cc(F)cc(N3CCN(c4ccc(NS(=O)(=O)c5ccc(NC(CCN6CCC(C(=O)OCCCP(=O)(O)O)CC6)CSc6ccccc6)c(S(=O)(=O)C(F)(F)F)c5)cc4)CC3)c2)c(-c2ccc(Cl)cc2)n1C(C)C: > 10 µM

Assign IC50 to the following record: Cc1nc(N2CCC3(CC2)COC(C)C3N)c(CO)nc1Sc1ccnc(N)c1Cl (stereo not drawn) + CNC(C)C(=O)NC1CN(S(=O)(=O)c2cccc(S(=O)(=O)N3CCC4CCC(C(=O)NC(c5ccccc5)c5ccccc5)N4C(=O)C(NC(=O)C(C)NC)C3)c2)CCC2CCC(C(=O)NC(c3ccccc3)c3ccccc3)N2C1=O
> 3 µM

Assign IC50 to the following record: COc1c(OCCCN2CCOCC2)ccc2c3n(c(=NC(=O)c4cnc(N)nc4)nc12)CCN3 + Cc1c(S(C)(=O)=O)c(-c2cc(F)cc(N3CCN(c4ccc(NS(=O)(=O)c5ccc(NC(CCN6CCC(C(=O)OCCCP(=O)(O)O)CC6)CSc6ccccc6)c(S(=O)(=O)C(F)(F)F)c5)cc4)CC3)c2)c(-c2ccc(Cl)cc2)n1C(C)C
0.596 µM

====

tested on: SYO-1 complex spheroid growth, percent test/control; assay: Anticancer human tumor SYO-1 cell line growth inhibition [Asc]; settings: second compound 0.1 µM; first compound 3 µM; stronger effect = lower value;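 also: compound exposure lasted 7 days after spheroids grew 3 days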;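 as to viability, T/C: 100% = DMSO vehicle control viability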
quantity: viability, T/C (%)
Entry rule: numbers only, all in %.

Worked cases, viability, T/C given:
Cc1nc(N2CCC3(CC2)COC(C)C3N)c(CO)nc1Sc1ccnc(N)c1Cl (centres undefined) + CNC(C)C(=O)NC1CN(S(=O)(=O)c2cccc(S(=O)(=O)N3CCC4CCC(C(=O)NC(c5ccccc5)c5ccccc5)N4C(=O)C(NC(=O)C(C)NC)C3)c2)CCC2CCC(C(=O)NC(c3ccccc3)c3ccccc3)N2C1=O: 110
CCN1C(C(=O)NC23CCC(C(=O)O)(CC2)CC3)C(c2cccc(Cl)c2F)C2(C(=O)Nc3cc(Cl)ccc32)C12CCCCC2 (centres undefined) + Cc1c(S(C)(=O)=O)c(-c2cc(F)cc(N3CCN(c4ccc(NS(=O)(=O)c5ccc(NC(CCN6CCC(C(=O)OCCCP(=O)(O)O)CC6)CSc6ccccc6)c(S(=O)(=O)C(F)(F)F)c5)cc4)CC3)c2)c(-c2ccc(Cl)cc2)n1C(C)C: 0.54
CCN1C(C(=O)NC23CCC(C(=O)O)(CC2)CC3)C(c2cccc(Cl)c2F)C2(C(=O)Nc3cc(Cl)ccc32)C12CCCCC2 (centres undefined) + CNC(C)C(=O)NC1CN(S(=O)(=O)c2cccc(S(=O)(=O)N3CCC4CCC(C(=O)NC(c5ccccc5)c5ccccc5)N4C(=O)C(NC(=O)C(C)NC)C3)c2)CCC2CCC(C(=O)NC(c3ccccc3)c3ccccc3)N2C1=O: 0.63

Assign viability, T/C to the following record: Cc1nc(N2CCC3(CC2)COC(C)C3N)c(CO)nc1Sc1ccnc(N)c1Cl (centres undefined) + Cc1c(S(C)(=O)=O)c(-c2cc(F)cc(N3CCN(c4ccc(NS(=O)(=O)c5ccc(NC(CCN6CCC(C(=O)OCCCP(=O)(O)O)CC6)CSc6ccccc6)c(S(=O)(=O)C(F)(F)F)c5)cc4)CC3)c2)c(-c2ccc(Cl)cc2)n1C(C)C
93.7
